# target: AxCT mask27 EGFR EH104 L070 version 1
measured_parameter: Percent cleavage (%)
Entry rule: numbers only, all in %.

Data request: Record request: Percent cleavage value, item Matriptase (protein) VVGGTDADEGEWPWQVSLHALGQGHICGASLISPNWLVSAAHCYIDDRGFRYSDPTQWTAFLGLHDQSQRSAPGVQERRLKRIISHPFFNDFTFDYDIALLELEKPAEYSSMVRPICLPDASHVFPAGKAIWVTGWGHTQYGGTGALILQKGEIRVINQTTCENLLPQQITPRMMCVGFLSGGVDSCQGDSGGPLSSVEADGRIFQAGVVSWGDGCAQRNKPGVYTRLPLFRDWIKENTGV
Data returned: 13
